Field: apparent KD of K4 kissing-loop reporter. Provide a value for each of the sequences that follow.
- System: K4 kissing-loop RNA reporter
- experimental-protocol: apparent KD of K4 kissing-loop reporter; higher = weaker reporter binding
- condition-set: Eterna round: R107; input ligand: theophylline 20 uM
Numbers only, in nM.

Previously resolved entries follow.
* UGAUAGGACAGAAGGAGCGGAAGUGAUGUUUCCAAAAGGCUAAGGUGUCAAAAGACACCCUUCCAGGUAGGUCGCUGUCCUAUCU | 260
* UCACGUGCCAGUGAUGUUGGCGUACGUGAUACCAGAACAAUAAAGUUCCCUUGGCAGCACAAAUAUGCCAAGUUAGAUGUAUGAU [Exclusion Theophylline A GF 3] | 119

Fill in apparent KD of K4 kissing-loop reporter for each of the 5 sequences listed.
1. UUUGGUUUCUCGGCCGCCACUCGUUGUCUAUGGGCUUCAGGGAUAUAGUGAUGUUAUGUAUAGAAGAGGACCGGGAGAAGGUUUU [ExTryptoB.Dv]
2. AUUUAAUGUAUAGAUUAUAUACAUAAUUCAGAGGAUAUGCAUAGAAGCAGAAGGCUGGUUGCAGUGAUGUUGCUUUUUUAAUUUA [JR_SSFMNA_Sub008]
3. GGAGGAGAAUAUGAUACCAGCAGAGAGAGAGAGGAAGUAUAGUGAUGUUAUAUGAGAGAAUGCCCUUGGCAGCAUAAGAAGAAGG [SSTheophylB.A]
4. UGCACGGGCUCGGCCGCCACUCCAGCGGGUCGCAAGGUCCGCUACUGAGUGAUGUUCGGUUGGAGGAGGACCGGGAGCCCGUGCG [#2 Exclusion - Tryptophan B Attempt #31 (HarryS)]
5. AUUAAUAACAGAGGAUAUGCAUUUUUAUUAUUUUUUAUUAUUAUAUGCAGUGAUGUUGCAUAUUAAGCAGAAGGCUGAUUUAUUU [JR_SSFMNB_Sub013]

Reply text:
1: 42.3; 2: 185; 3: 123; 4: 139; 5: 110

* * *

Field: apparent KD of MS2 coat protein. Provide a value for each of the sequences that follow.
- System: MS2 coat protein
- experimental-protocol: apparent KD of MS2 coat protein, switch ON state; designed switch direction (-1 OFF switch, 1 ON switch): -1; higher = weaker reporter binding
- condition-set: FMN input: 0 or 200 uM; Eterna round: R93 (includes R88 designs)
Give bare numbers, in nM.

• AAAGGACGAGGAUAUACAUGAGGAUCACCCAUGUAAAAAACAUAGUAAAAGUGCUUGUGUAGAAGGCGUCCAAA [Meechl Ex3 2 R2 v9] = 78.1
• UGCAUGUAAGGAUAUGCAACCGGCGCUCAUUAACCGGUCAAGCAGAAGGUACAUGAGGAUCACCCAUGUGUCCG [Esteleus] = 17.2
• AAAGAUGCAGGAUAUACAUGAGGAUCACCCAUGUUAGACCAAAAAUGGGAAAAAGAAAGUAGAAGGGCAUAAAA [Ex 3 May 34] = 43.2
• AAAAAGGCAGGAUAUACGAGUCAAAGAAAAGACAAAAGGAGACAUGAGGAUCACCCAUGUAGAAGGGCCAAAAA [Fiskers exclusion D2 62% 5] = 36.8

Fill in apparent KD of MS2 coat protein for each of the 2 sequences listed.
1. AACAGUACAGGAUAUACAUGAGGAUCACCCAUGUAAAAGGGAAGUGGCGUACCACAAAGUAGAAGGGUACUGGA [Moding Maslow revisited (73) 6]
2. AGCAAGUCAGGAUAUACGAAUAAGACAAAAGACGUGAAGGGACAUGAGGAUCACCCAUGUAGAAGGGACAAGCA [LROPPY Exclusion 2 - v01_mod Fisker]

Reply text:
1. 37.6
2. 80.9

* * *

- Tested on: MS2 coat protein
- experimental-protocol: apparent KD of MS2 coat protein; designed switch direction (-1 OFF switch, 1 ON switch): -1; higher = weaker reporter binding
- condition-set: Eterna round: R95; input ligand: none
Class membership depends on apparent KD of MS2 coat protein alone; the intervals are bin 1 = under 20 nM, bin 2 = from 20 nM up to 200 nM, bin 3 = 200 nM and over

Below are worked cases with known answers.
• UGGUAACAUGAGGAUCACCCAUGUCAGGAUAUCAGUAAGAAUAGAUUAGAUUAGAAGAUGAGAAGGGACUAUAU [Excluse me! 5 - Jieux - Exclusion 1] (puzzle: Exclusion 1) = bin 2
• AAAUGCAAGUAAAGAUUCUACAUGAGGAUCACCCAUGUGCUCGUCUUAUAAAGUACUAUCACGAAAGUGAUAGUACA [Sensor 3, v1 - 35] (puzzle: Sensor v3, turn-off variant 1) = bin 1
• AGUAGGUCUACCUUGGUGGAUCUGCAUUAUUCAAGUGUUACAUGAGGAUCACCCAUGUCCUCAUUUGCUCGUCUUAU [JL turnoff v2 99.25] (puzzle: Sensor v3, turn-off variant 2) = bin 3
• AAGUACCGUCACGAUAGUGAUGGUACAACAAGUAGUGAAACAUGAGGAUCACCCAUGUCCUCAAUUGCUCGUCUUAU [Sensor 3 - 81] (puzzle: Sensor v3, turn-off variant 2) = bin 3
• AGUAACUAUCACGAAAGUGAUAGUUACACAAGUGUAAUAACAUGAGGAUCACCCAUGUCCUCAUUUGCUCGUCUUAU [Sensor 3 - 34] (puzzle: Sensor v3, turn-off variant 2) = bin 2

Inquiry: Classify this sequence: GCCAGAUCAGGAUAUCUAAUAUAUCACAUGAGGAUCACCCAUGUCCAGCGAAAGCUGGAGGGAGAAGGGAUCUGGC [Mat - Exclusion 5 - Eli mod - D102] (puzzle: Exclusion 5)
Reply text: bin 2

Inquiry: Classify this sequence: AGAAGUAGUAACCGAUCCUACAUGAGGAUCACCCAUGUAGCUAGACGUGCACGCGAAGCUCGUCAGACUACCAGAUG [salish99_TOv1_r3_023] (puzzle: Sensor v3, turn-off variant 1)
Reply text: bin 3

* * *

- System: MS2 coat protein
- experimental-protocol: apparent KD of MS2 coat protein; higher = weaker reporter binding
- condition-set: Eterna round: R107; input ligand: theophylline 2 mM
Field: apparent KD of MS2 coat protein. Provide a value for each of the sequences that follow.
Give bare numbers, in nM.

Previously resolved entries follow.
* UAAUUUAUAGGGUAUAUCAGAUUAACUGAAGGAGCGUGGUAAUACACAGGUAGGUCGCAGAUGGAACAUGAGGAUCACCCAUGUU [JR_ExcArginiA_Sub016] | 25.7
* UAGCAUAGUACGGCCGCCACUCCUGGUUCCCGGCCGUGUGUAAGACAUGAGGAUCACCCAUGUAGGAGGACCGGGUAUCGCUUGC [theeternabot_sameState_MS2_Trp_B_22] | 15.6

--- query ---
Lab book: apparent KD of MS2 coat protein of CAGUGAGAACGAAGGAGCGCUGAAUGAUGUGGACAUGAGGAUCACCCAUGUUAAGUCCAAUGGCAGGUAGGUCGCGUAACACUAG [Same State - Arginine B] noted as 12.7

* * *

- System: K4 kissing-loop RNA reporter;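 also: bound reporter read as fluorescence of individual clusters on recovered sequencing chips by microscopy, with normalized cluster intensities fitted with a binding model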
- experimental-protocol: apparent KD of K4 kissing-loop reporter; higher = weaker reporter binding
- condition-set: Eterna round: R107; input ligand: none
reported-metric: apparent KD of K4 kissing-loop reporter
Please answer using the number first and the unit second.

Previously resolved entries follow.
- GAUGAUCGCGCGGCCGCCACUGGUCAGUGAUGUUGACAUUAAGGCGCCGAGUAGUAACGGCGCCACAGGACCGGGCGCGAUGUAG [First Shot]: 156 nM
- CCAUGAGGAUAAGAUGAUAUCAUAACAGAAGGAGCGAGUGAUAACUCAGGUAGGUCGCUGAAUUUAUCGAGUGAUGUUCGAUGAA [Same State Arginine A GF11]: 193 nM
- AGGUUUUGAUUAGGAUAUGCACUGAGGAGGAGAAUAUAGUGAUGUUAUAUAAGAGGAAGGAGAAGAGUAGAAGGGAUUGAGGUUU [SSFMNB.Q]: 191 nM

Fill in apparent KD of K4 kissing-loop reporter for each of the 3 sequences listed.
1. AGUAAUCUCACGGCCGCCACUGUUUAUUGUUUUUAUAGUUAUAAAUCUUGCCAGUGAUGUUGGUACAGGACCGGGUGAGUUAAUA [#25 K4 Tryptophan B Same State]
2. UACUAUAGUGAUGUUAUAGAUAAAACAGAUACCAGUGUUACAUAACACCCUUGGCAGCUGAAAAGGGAAAGUAUAAAUGUGUAUU [AstrosSSTHe-A#1newdesignED]
3. AUCGAUAUCAGAGGAUAUGCUUAAUAGAUUUAUUAUUAUCUAUUAUGCAGUGAUGUUGCAUAUUUUGCAGAAGGCUGAUUUCGAA [JR_SSFMNB_Sub019]

Reply text:
1: 402 nM; 2: 133 nM; 3: 447 nM

* * *

Field: apparent KD of MS2 coat protein. Provide a value for each of the sequences that follow.
- Test system: MS2 coat protein
- experimental-protocol: apparent KD of MS2 coat protein; designed switch direction (-1 OFF switch, 1 ON switch): 1; higher = weaker reporter binding
- condition-set: input ligand: none
Give bare numbers, in µM.

Previously resolved entries follow.
• AGCUAUCGAAAACGAUAGCAAAAGCAUGUACAUGAGGAUCACCCAUGUCAUGUACAAGCUUUUUGCUCGUCUUGAAA [Zipper 23 - 9] (Eterna round: R96, puzzle: Sensor for hsa-mir-208a) = 0.824
• AUAAGUUUGAUGCUCGUCUCUUCGUACAGACAUGAGGAUCACCCAUGUAGUCGGGAAGUAGCCCGGCCAGUAUGACC [Usraisqu] (Eterna round: R96, puzzle: Sensor for hsa-mir-208a) = 0.248
• GCUAGGAUUAAAGCCAACAUGAGGAUCACCCAUGUAUGUUGGUAGGAUAUCGUUUGCAAAGCAAACGAGAAGGGCUAACCUAGC [Mat - Same State NG 3 - JL Mod - D67] (Eterna round: R96, puzzle: Same State NG 3) = 0.0926
• GUGGUCAGACAUGAGGAUCACCCAUGUGGAAUAAAUAAGGAGAAGGAUAUUUAAUAUAGGAUAUAAAAGAAGGUCUGGUUGGUG (Eterna round: R96, puzzle: Same State NG 3) = 0.0925
• AGAUCAUGACGAGGAUAUCCGACAUGAGGAUCACCCAUGUAUGUCGGAGGACGCGUACGUCCAAUGGAGAAGGCGUCGUGGUCA [JL SSNG2 1.03] (Eterna round: R96, puzzle: Same State NG 2) = 0.0825

Fill in apparent KD of MS2 coat protein for each of the 4 sequences listed.
1. AGGCUCAGACGAGGAUAUGAUCAUGGCGCUUCGGCGCAUACAUGAGGAUCACCCAUGUAGGGUGAUCAGAAGGUGUCUGAGCCA [SSNG2/8-B1] (Eterna round: R96, puzzle: Same State NG 2)
2. ACAUGAAAUUUAGGAUAUUUUGUACCUACAUGUGACAUGAGGAUCACCCAUGUGGUAAGUAUAAGAAAGAAGGAAAAGAUAUGU [Equivalence 8 - Jieux - Same State NG 2] (Eterna round: R96, puzzle: Same State NG 2)
3. GGAGCCGGCCUAGGAUAUUUCAUUUAAAAACAUGAGGAUCACCCAUGUAGGCCAGAAGGCCUUGGGAAGAAGGAGGUCGGCUCC [Loop Effect - U24,U25] (Eterna round: R96, puzzle: Same State NG 2)
4. GGAAGGAGGUCAGGAUAUGAAUGGAAAGUACAUGAGGAUCACCCAUGUUAUGGAGGAAGGAAACGUUAGAAGGGAUAAGGAAGG [AK SSNG2-V2-2] (Eterna round: R96, puzzle: Same State NG 2)

Reply text:
1: 1.21; 2: 0.0649; 3: 0.0442; 4: 0.0415
